Test system: Saccharomyces cerevisiae BY4741 SeMeCo community
experiment-summary: z-score of subpopulation abundance vs DMSO median, subpopulation auxotrophic for HLUM; higher = larger share of this subpopulation than in DMSO controls
setup-conditions: 10 µM; 24 h; SM minimal medium; subpopulation (auxotrophy): HLUM
Structures can show the parent of a compound that is named as a salt.
Classes based on z-score of subpopulation abundance: bottom = under -0.5, middle = from -0.5 up to 0.3, top = 0.3 and over

Asked: Returns: class label. Input: CN[C@@H]1[C@@H](O)[C@@H](O[C@@H]2[C@@H](O)[C@H](O[C@H]3O[C@H](CN)[C@@H](O)[C@H](O)[C@H]3O)[C@@H](N)C[C@H]2NC(=O)[C@@H](O)CN)OC[C@]1(C)O [Isepamicin Sulphate]
Given back: middle

Asked: Returns: class label. Input: `OC(Cn1cncn1)(Cn1cncn1)c1ccc(F)cc1F`
Given back: bottom

Asked: Returns: class label. Input: O=C1c2c(O)ccc(O)c2C(=O)c2c(NCCNCCO)ccc(NCCNCCO)c21 [Mitoxantrone 2HCl]
Given back: bottom

Asked: Returns: class label. Input: Nc1ccc(S(N)(=O)=O)cc1 [Sulfanilamide]
Given back: bottom

Asked: Returns: class label. Input: CO/N=C(\C(=O)N[C@@H]1C(=O)N2C(C(=O)O)=C(COC(C)=O)CS[C@H]12)c1csc(N)n1 [Cefotaxime sodium]
Given back: top

Asked: Returns: class label. Input: `Cc1nnc(SCC2=C(C(=O)O)N3C(=O)[C@@H](NC(=O)Cn4cc(Cl)c(=O)c(Cl)c4)[C@H]3SC2)s1`
Given back: bottom

Asked: Returns: class label. Input: CC(C)c1nc(N(C)S(C)(=O)=O)nc(-c2ccc(F)cc2)c1/C=C/[C@@H](O)C[C@@H](O)CC(=O)O [Rosuvastatin]
Given back: top

Asked: Returns: class label. Input: `CC(=O)N[C@H]1[C@H]([C@H](O)[C@H](O)CO)OC(C(=O)O)=C[C@@H]1NC(=N)N`
Given back: top

Asked: Returns: class label. Input: CN(C)CCc1c[nH]c2ccc(CS(=O)(=O)N3CCCC3)cc12 [Almotriptan Malate]
Given back: middle

Asked: Returns: class label. Input: C[C@@H](NCCCc1cccc(C(F)(F)F)c1)c1cccc2ccccc12 [Cinacalcet HCl]
Given back: top

Asked: Returns: class label. Input: `C#C[C@]1(O)CC[C@H]2[C@@H]3CCC4=Cc5oncc5C[C@]4(C)[C@H]3CC[C@@]21C`
Given back: middle

Asked: Returns: class label. Input: `CCCSc1ccc2[nH]c(NC(=O)OC)nc2c1`
Given back: middle

Asked: Returns: class label. Input: `Cc1c[nH]c(=O)[nH]c1=O`
Given back: top

Asked: Returns: class label. Input: CSCC1CN(/N=C/c2ccc([N+](=O)[O-])o2)C(=O)O1 (centres undefined)
Given back: top

Asked: Returns: class label. Input: O=C1CN(/N=C/c2ccc(-c3ccc([N+](=O)[O-])cc3)o2)C(=O)N1 [Dantrolene sodium hemiheptahydrate]
Given back: top

Asked: Returns: class label. Input: CCN(CC)CCOC(=O)c1ccc(N)cc1 [Procaine HCl]
Given back: middle

Asked: Returns: class label. Input: CC1(C)S[C@@H]2[C@H](NC(=O)[C@H](N)c3ccccc3)C(=O)N2[C@H]1C(=O)O [Ampicillin sodium]
Given back: bottom

Asked: Returns: class label. Input: `COc1cnc(NS(=O)(=O)c2ccc(N)cc2)nc1`
Given back: middle

Asked: Returns: class label. Input: `CCN1CCN(c2cc3c(cc2F)c(=O)c(C(=O)O)cn3C2CC2)CC1`
Given back: middle

Asked: Returns: class label. Input: `O=c1ccc2ccc(OCCCCN3CCN(c4cccc5sccc45)CC3)cc2[nH]1`
Given back: bottom

Asked: Returns: class label. Input: CN1CCN(CCCN2c3ccccc3Sc3ccc(C(F)(F)F)cc32)CC1 [Trifluoperazine 2HCl]
Given back: middle

Asked: Returns: class label. Input: O=C(C1CCCCC1)N1CC(=O)N2CCc3ccccc3C2C1 (centres undefined)
Given back: middle

Asked: Returns: class label. Input: CCOC(=O)C1=C(C)NC(C)=C(C(=O)OC)C1c1cccc([N+](=O)[O-])c1 (centres undefined)
Given back: bottom

Asked: Returns: class label. Input: CC[C@H]1OC(=O)[C@H](C)[C@@H](O[C@H]2C[C@@](C)(OC)[C@@H](O)[C@H](C)O2)[C@H](C)[C@@H](O[C@@H]2O[C@H](C)C[C@H](N(C)C)[C@H]2O)[C@](C)(O)C[C@@H](C)CN(C)[C@H](C)[C@@H](O)[C@]1(C)O [Azithromycin Dihydrate]
Given back: middle

Asked: Returns: class label. Input: Cc1c(C)c2c(c(C)c1O)CCC(C)(CCCC(C)CCCC(C)CCCC(C)C)O2 (centres undefined)
Given back: bottom

Asked: Returns: class label. Input: OCCN1CCN(CCCN2c3ccccc3Sc3ccc(C(F)(F)F)cc32)CC1 [Fluphenazine dihydrochloride]
Given back: top

Asked: Returns: class label. Input: CC[C@H]1OC(=O)C[C@@H](O)[C@H](C)[C@@H](O[C@@H]2O[C@H](C)[C@@H](O)[C@H](N(C)C)[C@H]2O)[C@@H](CCN2C[C@H](C)C[C@H](C)C2)C[C@@H](C)C(=O)/C=C/C(C)=C/[C@@H]1CO[C@@H]1O[C@H](C)[C@@H](O)[C@@H](OC)[C@H]1OC [Tilmicosin phosphate]
Given back: bottom

Asked: Returns: class label. Input: O=C1Cc2cc(CCN3CCN(c4nsc5ccccc45)CC3)c(Cl)cc2N1 [Ziprasidone HCl]
Given back: top

Provenance of the data: the supplement of paper PMC8975748
